- target.entity: Dopamine beta hydroxylase (Homo sapiens)
- Construct: 125 μl of plasma; tissue Instituto Português do Sangue Transplantação; host or cells: human plasma from healthy donors
- protocol.notes: Dopamine beta hydroxylase activity in human plasma
- Assay type: biochemical
- test.settings: inhibitor 0.1 μM
- Protocol: Furthermore, the ability of a compound to inhibit DβH activity may be assessed in human plasma using the following assay. […]. Dopamine beta hydroxylase activity in human plasma was measured by the method of Nagatsu and Udenfriend (Nagatsu, T. and Udenfriend, S. “Photometric assay of dopamine-μ-hydroxylase activity in human blood.” Clin. Chem. 18(9) 980-983, 1972) with minor modifications. […] Absorbance was linear with octopamine concentration from 0.5 to 20 μg/ml. […]
Plasma (0.1 μM), activity in % of control by entry:

>  <compound>
CC1CCN(C(=O)CCc2[nH]c(=S)n3c2C[C@H](c2c(F)c(F)cc(F)c2F)C3)CC1 [Example 208]

>  <target.entity>
Dopamine beta hydroxylase (Homo sapiens)

>  <readout.value>
13.3 % of control

$$$$
>  <compound>
Cn1c(CC(=O)N2CCS(=O)(=O)CC2)c2n(c1=S)C[C@H](c1c(F)ccc(Br)c1F)C2 [Example 235]

>  <target.entity>
Dopamine beta hydroxylase (Homo sapiens)

>  <readout.value>
1.2 % of control

$$$$
>  <compound>
CN(C)C(=O)C1CCN(C(=O)Cc2c3n(c(=S)n2C)C[C@H](c2c(F)ccc(Br)c2F)C3)C1 (some centres unmarked) [Example 453]

>  <target.entity>
Dopamine beta hydroxylase (Homo sapiens)

>  <readout.value>
10.4 % of control

$$$$
>  <compound>
Cn1c(CC(=O)NCc2cccnc2)c2n(c1=S)C[C@H](c1c(F)ccc(Cl)c1F)C2 [Example 290]

>  <target.entity>
Dopamine beta hydroxylase (Homo sapiens)

>  <readout.value>
3.8 % of control

$$$$
>  <compound>
Cn1c(CC(=O)N2CCOCC2)c2n(c1=S)C[C@@H](c1c(F)c(F)cc(F)c1F)C2 [Example 242]

>  <target.entity>
Dopamine beta hydroxylase (Homo sapiens)

>  <readout.value>
53.6 % of control

$$$$
>  <compound>
Cn1c(CC(=O)Nc2nncs2)c2n(c1=S)C[C@H](c1c(F)ccc(Cl)c1F)C2 [Example 285]

>  <target.entity>
Dopamine beta hydroxylase (Homo sapiens)

>  <readout.value>
22.2 % of control

$$$$
>  <compound>
Fc1ccc(Br)c(F)c1[C@@H]1Cc2c(CCNC3CCC3)[nH]c(=S)n2C1 [Example 181]

>  <target.entity>
Dopamine beta hydroxylase (Homo sapiens)

>  <readout.value>
18.3 % of control

$$$$

Query :: Plasma (0.1 μM), activity in % of control for Cn1c(CC(=O)NC2COC2)c2n(c1=S)C[C@H](c1c(F)ccc(F)c1F)C2 [Example 432] ?
Result :: 43.7 % of control

----------
- target.entity: Dopamine beta hydroxylase (Homo sapiens)
- Construct: 125 μl of plasma; tissue Instituto Português do Sangue Transplantação; host or cells: human plasma from healthy donors
- protocol.notes: Dopamine beta hydroxylase activity in human plasma
- Format: biochemical
- test.settings: inhibitor 0.1 μM
measured.attribute: Plasma (0.1 μM), activity in % of control

Examples with answers:
>  <molecule>
O=C(Cc1[nH]c(=S)n2c1C[C@H](c1c(F)c(F)cc(F)c1F)C2)N1CCCC1

>  <readout.value>
67.9 % of control

$$$$
>  <molecule>
Cl.Cn1c(CCN[C@@H]2CCCOC2)c2n(c1=S)C[C@@]1(c3cc(Br)ccc3F)C[C@@H]21

>  <readout.value>
50.2 % of control

$$$$
>  <molecule>
Cn1c(CCC(=O)N[C@@H]2CCCOC2)c2n(c1=S)C[C@@H](c1c(F)ccc(F)c1F)C2

>  <readout.value>
81.1 % of control

$$$$
>  <molecule>
O=C(Cc1[nH]c(=S)n2c1C[C@@H](c1c(F)c(F)cc(F)c1F)C2)NC1CCC1

>  <readout.value>
55.7 % of control

$$$$
>  <molecule>
Cn1c(CC(=O)N[C@H]2CC[C@H](O)CC2)c2n(c1=S)C[C@@]1(c3cc(Br)ccc3F)C[C@@H]21

>  <readout.value>
3.8 % of control

$$$$
>  <molecule>
CS(=O)(=O)C1CCN(C(=O)Cc2[nH]c(=S)n3c2C[C@@H](c2c(F)ccc(Br)c2F)C3)C1 (stereo partly drawn)

>  <readout.value>
17.1 % of control

$$$$

Query :: Report Plasma (0.1 μM), activity in % of control for C[C@@H](NCCc1[nH]c(=S)n2c1C[C@H](c1c(F)ccc(Br)c1F)C2)C1CCCCC1 tested on Dopamine beta hydroxylase (Homo sapiens).
Result :: 43.7 % of control

Query :: # returns recorded Plasma (0.1 μM), activity in % of control (system: Dopamine beta hydroxylase (Homo sapiens)) for O=C(Cc1[nH]c(=S)n2c1[C@@H]1C[C@]1(c1cc(Br)ccc1F)C2)NC1CCC1
Result :: 28.4 % of control

Query :: Please state recorded Plasma (0.1 μM), activity in % of control (tested on Dopamine beta hydroxylase (Homo sapiens)) of O=C(Cc1[nH]c(=S)n2c1C[C@H](c1c(F)c(F)cc(F)c1F)C2)NC1CCCC1
Result :: 46.2 % of control

----------
- target.entity: Dopamine beta hydroxylase (Homo sapiens, UniProt P09172)
- Construct: 125 μl of plasma; tissue Instituto Português do Sangue Transplantação; host or cells: human plasma from healthy donors
- Sequence (P09172 40-617 limits assumed): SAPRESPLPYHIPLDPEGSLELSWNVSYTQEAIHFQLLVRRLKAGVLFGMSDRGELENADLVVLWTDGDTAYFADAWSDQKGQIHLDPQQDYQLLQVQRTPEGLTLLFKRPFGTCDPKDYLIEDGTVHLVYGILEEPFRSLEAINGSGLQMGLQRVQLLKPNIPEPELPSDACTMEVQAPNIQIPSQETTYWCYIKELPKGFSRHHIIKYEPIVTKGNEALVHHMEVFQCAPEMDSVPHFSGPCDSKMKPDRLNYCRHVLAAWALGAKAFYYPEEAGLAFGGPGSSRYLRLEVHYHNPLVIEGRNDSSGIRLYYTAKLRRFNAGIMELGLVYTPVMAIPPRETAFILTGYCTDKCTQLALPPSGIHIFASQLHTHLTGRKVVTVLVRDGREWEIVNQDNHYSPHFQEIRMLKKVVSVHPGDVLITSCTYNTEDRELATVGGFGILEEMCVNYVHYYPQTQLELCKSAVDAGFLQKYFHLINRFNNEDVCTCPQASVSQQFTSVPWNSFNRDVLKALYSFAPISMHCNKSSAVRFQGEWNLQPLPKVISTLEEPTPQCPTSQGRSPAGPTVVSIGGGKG
- protocol.notes: Dopamine beta hydroxylase activity in human plasma
- Format: biochemical
- test.settings: inhibitor 0.1 μM
measured.attribute: Plasma (0.1 μM), activity in % of control

Field: example entries. Status: answers known.
>  <compound>
Cn1c(CC(=O)N[C@@H]2CCOC2)c2n(c1=S)C[C@@H](c1cc(Cl)ccc1F)C2

>  <readout.value>
80.3 % of control

$$$$
>  <compound>
Cn1c(CC(=O)NC2CCS(=O)(=O)CC2)c2n(c1=S)C[C@@H](c1c(F)ccc(F)c1F)C2

>  <readout.value>
3.9 % of control

$$$$
>  <compound>
Cn1c(CCC(=O)Nc2ccccn2)c2n(c1=S)C[C@@H](c1c(F)cccc1F)C2

>  <readout.value>
83.7 % of control

$$$$
>  <compound>
CCOC(=O)Cc1[nH]c(=S)n2c1C[C@@H](c1cc(Br)ccc1F)C2

>  <readout.value>
66.4 % of control

$$$$
>  <compound>
Cn1c(CC(N)=O)c2n(c1=S)C[C@@]1(c3cc(Cl)ccc3F)C[C@@H]21

>  <readout.value>
75.4 % of control

$$$$
>  <compound>
O=C(Cc1[nH]c(=S)n2c1C[C@@H](c1c(F)c(F)cc(F)c1F)C2)N1CCCC1

>  <readout.value>
74.9 % of control

$$$$

Query :: Which value of Plasma (0.1 μM), activity in % of control has been reported for Cn1c(CCN2CCCC2)c2n(c1=S)C[C@@H](c1c(F)ccc(F)c1F)C2 in the records?
Result :: 79.3 % of control

Query :: What does the data say about its Plasma (0.1 μM), activity in % of control? Entry: Cl.Cn1c(CCNCc2ccccn2)c2n(c1=S)C[C@@]1(c3cc(Cl)ccc3F)C[C@@H]21
Result :: 59.5 % of control

Query :: Would you kindly share the measured Plasma (0.1 μM), activity in % of control for Cn1c(CC(=O)O)c2n(c1=S)C[C@H](c1c(F)ccc(Cl)c1F)C2 ?
Result :: 20.6 % of control

Query :: What measured Plasma (0.1 μM), activity in % of control goes with CCOC(=O)CNC(=O)Cc1[nH]c(=S)n2c1C[C@H](c1c(F)c(F)cc(F)c1F)C2 ?
Result :: 71.3 % of control

Query :: Look up Plasma (0.1 μM), activity in % of control for this compound: Cn1c(CC(=O)NC2COC2)c2n(c1=S)C[C@H](c1c(F)ccc(Br)c1F)C2
Result :: 3.1 % of control

Query :: State the recorded Plasma (0.1 μM), activity in % of control for this entry: O=C(Cc1[nH]c(=S)n2c1C[C@H](c1c(F)ccc(Br)c1F)C2)NCCO
Result :: 87.7 % of control

Query :: Name the reported Plasma (0.1 μM), activity in % of control value associated with the compound CCOC(=O)Cc1[nH]c(=S)n2c1[C@@H]1C[C@]1(c1cc(Cl)ccc1F)C2
Result :: 32.2 % of control

Query :: For Cn1c(CC(=O)NCC2CCOCC2)c2n(c1=S)C[C@H](c1c(F)ccc(Cl)c1F)C2 , what is its reported Plasma (0.1 μM), activity in % of control?
Result :: 10.9 % of control
